Tgt: h56A5 (Homo sapiens, UniProt P0C7T3)
Sequence (P0C7T3 whole entry): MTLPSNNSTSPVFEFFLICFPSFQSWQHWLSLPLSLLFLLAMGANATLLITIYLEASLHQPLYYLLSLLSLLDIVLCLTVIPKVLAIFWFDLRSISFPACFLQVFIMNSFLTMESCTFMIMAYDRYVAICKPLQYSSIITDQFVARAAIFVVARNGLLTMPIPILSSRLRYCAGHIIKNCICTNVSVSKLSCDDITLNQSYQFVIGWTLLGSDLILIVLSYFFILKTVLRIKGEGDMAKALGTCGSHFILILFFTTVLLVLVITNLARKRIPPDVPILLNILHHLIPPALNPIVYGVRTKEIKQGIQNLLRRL
Assay protocol: cell-based
Readout: EC50 (µM)
Answer format: numeric, µM implied, no suffix.

q: Look up EC50 for this compound: CCCCCCCCCC=O [decyl aldehyde]
a: 162

---

Tgt: h56A1 (Homo sapiens)
Sequence (Q8NGH5 whole entry): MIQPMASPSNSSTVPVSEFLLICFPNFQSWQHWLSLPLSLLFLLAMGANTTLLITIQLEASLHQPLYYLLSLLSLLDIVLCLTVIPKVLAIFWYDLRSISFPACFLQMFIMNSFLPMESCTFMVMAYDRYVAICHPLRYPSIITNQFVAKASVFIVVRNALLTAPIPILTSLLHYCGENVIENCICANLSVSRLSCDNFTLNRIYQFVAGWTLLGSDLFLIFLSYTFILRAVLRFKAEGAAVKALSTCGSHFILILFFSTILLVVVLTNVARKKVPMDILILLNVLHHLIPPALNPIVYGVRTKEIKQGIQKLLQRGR
Assay protocol: cell-based
Readout: EC50 (µM)
Answer format: numeric, µM implied, no suffix.

q: Look up EC50 for this compound: "CCCCCCCCCC=O"
a: 575

---

Tgt: MOR267-13 (Mus musculus)
Sequence (Q62007 whole entry): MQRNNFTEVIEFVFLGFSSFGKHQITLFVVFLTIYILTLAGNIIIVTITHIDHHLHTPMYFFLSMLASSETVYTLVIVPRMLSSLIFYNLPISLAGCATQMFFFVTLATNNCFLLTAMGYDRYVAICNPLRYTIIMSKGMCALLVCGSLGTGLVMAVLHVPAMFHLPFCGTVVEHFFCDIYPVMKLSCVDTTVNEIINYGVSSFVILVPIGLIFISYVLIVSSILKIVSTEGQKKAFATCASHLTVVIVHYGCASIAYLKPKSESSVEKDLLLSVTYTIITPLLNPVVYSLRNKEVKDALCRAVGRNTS
Assay protocol: cell-based
Condition description: ortholog and paralog set
Readout: EC50 (µM)
Answer format: numeric, µM implied, no suffix.

q: # get_value(readout= EC50, system= MOR267-13 (Mus musculus)) for CC(C)(O)CCCC1=CCC(C=O)CC1 (stereo not shown) [lyral]
a: 20.9

---

Tgt: UniProt:Q8NGH8
Sequence (Q8NGH8 whole entry): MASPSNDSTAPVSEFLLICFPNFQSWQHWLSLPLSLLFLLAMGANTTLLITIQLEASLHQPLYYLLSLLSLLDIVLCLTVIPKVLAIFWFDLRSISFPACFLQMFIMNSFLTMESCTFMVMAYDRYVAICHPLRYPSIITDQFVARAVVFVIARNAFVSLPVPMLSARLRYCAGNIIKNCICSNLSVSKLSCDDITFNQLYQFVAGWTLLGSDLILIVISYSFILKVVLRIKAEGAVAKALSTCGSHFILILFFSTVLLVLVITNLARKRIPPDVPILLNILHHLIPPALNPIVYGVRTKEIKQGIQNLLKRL
Assay protocol: cell-based
Readout: pEC50
API: returns pEC50 as number; meaning -log10 of concentration in mol/L.

q: Look up pEC50 for this compound: "CCCCCCCCCC=O"
a: 3.72

---

Tgt: h2J3 (Homo sapiens, UniProt O76001)
Sequence (O76001 whole entry): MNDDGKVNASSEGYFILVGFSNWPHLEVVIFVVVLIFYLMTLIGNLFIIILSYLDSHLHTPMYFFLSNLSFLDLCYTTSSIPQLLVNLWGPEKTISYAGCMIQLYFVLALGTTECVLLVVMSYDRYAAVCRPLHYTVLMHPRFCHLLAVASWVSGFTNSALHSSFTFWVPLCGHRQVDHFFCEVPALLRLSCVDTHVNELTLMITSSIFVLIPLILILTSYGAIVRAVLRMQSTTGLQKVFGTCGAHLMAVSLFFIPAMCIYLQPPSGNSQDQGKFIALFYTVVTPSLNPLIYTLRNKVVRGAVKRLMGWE
Assay protocol: cell-based
This section presents compounds with their documented pEC50 values.
API: returns pEC50 as number; meaning -log10 of concentration in mol/L.

CC(=O)OC/C=C(\C)CCC=C(C)C [geranyl acetate] | 3.79

Now, please, on to the next compound.
q: Look up pEC50 for this compound: "CCCCCCCCO"
a: 5.73

---

Tgt: chimp OR8D1 (Pan troglodytes, UniProt A0A2J8N1S1)
Construct: full-length ORF from genomic DNA, N-terminal Rho-tag, Hana3A cells with human RTP1S
Sequence (A0A2J8N1S1 1-308): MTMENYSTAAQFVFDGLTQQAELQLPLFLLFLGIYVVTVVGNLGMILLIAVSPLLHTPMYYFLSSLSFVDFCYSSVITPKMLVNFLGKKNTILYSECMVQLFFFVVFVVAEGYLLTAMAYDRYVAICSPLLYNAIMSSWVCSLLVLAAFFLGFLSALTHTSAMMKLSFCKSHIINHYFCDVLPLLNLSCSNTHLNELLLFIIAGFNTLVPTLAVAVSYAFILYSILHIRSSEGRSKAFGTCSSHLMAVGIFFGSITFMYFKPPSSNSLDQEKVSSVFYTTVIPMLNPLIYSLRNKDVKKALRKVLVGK
Assay protocol: cell-based
Readout: pEC50
API: returns pEC50 as number; meaning -log10 of concentration in mol/L.

q: Look up pEC50 for this molecule: CC1=C(O)C(=O)OC1C (stereo not shown)
a: 4.73

---

Tgt: h10G3 (Homo sapiens)
Sequence (Q8NGC4 whole entry): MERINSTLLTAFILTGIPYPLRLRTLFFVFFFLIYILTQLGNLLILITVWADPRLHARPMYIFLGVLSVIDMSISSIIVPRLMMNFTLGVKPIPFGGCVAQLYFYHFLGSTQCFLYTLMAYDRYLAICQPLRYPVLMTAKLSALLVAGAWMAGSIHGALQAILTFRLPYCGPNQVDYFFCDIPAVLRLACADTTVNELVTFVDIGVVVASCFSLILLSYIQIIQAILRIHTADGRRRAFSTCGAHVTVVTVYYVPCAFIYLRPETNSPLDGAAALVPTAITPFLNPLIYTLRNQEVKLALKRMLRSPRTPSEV
Assay protocol: cell-based
Readout: EC50
Hi, when you answer, please include the unit after the number. Thanks!

CCOc1cc(C=O)ccc1O | 41.7 µM

q: Look up EC50 for this compound: "C=CCc1ccc(O)c(OC)c1"
a: 132 µM

---

Tgt: OR2J2 (human) (Homo sapiens, UniProt O76002)
Construct: full-length ORF from genomic DNA, N-terminal Rho-tag, Hana3A cells with human RTP1S
Sequence (O76002 whole entry): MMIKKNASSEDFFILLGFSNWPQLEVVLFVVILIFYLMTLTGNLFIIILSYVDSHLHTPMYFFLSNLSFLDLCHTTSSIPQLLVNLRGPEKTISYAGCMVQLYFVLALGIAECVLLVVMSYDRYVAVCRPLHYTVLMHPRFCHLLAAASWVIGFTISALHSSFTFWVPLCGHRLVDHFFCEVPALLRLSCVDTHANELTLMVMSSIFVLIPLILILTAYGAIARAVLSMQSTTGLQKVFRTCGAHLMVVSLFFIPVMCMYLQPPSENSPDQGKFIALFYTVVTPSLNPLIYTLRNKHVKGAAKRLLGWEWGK
Assay protocol: cell-based
Readout: EC50
Hi, when you answer, please include the unit after the number. Thanks!

CCCCCCCCO [1-octanol] | 7.41 µM

Now, please, on to the next compound.
q: Look up EC50 for this compound: CC(=O)OC/C=C(\C)CCC=C(C)C [geranyl acetate]
a: 42.7 µM
